Target: KRas-mediated phosphorylation of ERK in A549 cells (Homo sapiens, UniProt P01116, G12S)
Construct: pERK HTRF read-out
Sequence (P01116 1-188 isoform P01116-2 G12S): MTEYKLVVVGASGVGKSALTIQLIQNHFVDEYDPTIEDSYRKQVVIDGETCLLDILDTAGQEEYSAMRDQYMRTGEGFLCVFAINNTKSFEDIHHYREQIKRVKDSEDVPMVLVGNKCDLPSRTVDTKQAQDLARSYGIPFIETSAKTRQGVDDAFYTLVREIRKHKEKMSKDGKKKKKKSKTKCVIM
Experiment: Inhibition of KRas-mediated phosphorylation of ERK (HTRF), A549 cells
Assay type: cell-based
Details: HTRF pERK, 3 h incubation
IC50 values, listed per item
Provide the reading as a plain figure in nM.

[
  {
    "molecule": "CCc1c(F)ccc2cc(O)cc(-c3ncc4c(N(C)CCC(=O)N(C)C(C)=O)nc(OC[C@@]56CCCN5C[C@H](F)C6)nc4c3F)c12",
    "recorded_result": 745
  },
  {
    "molecule": "COCc1ccn(C(=O)C2CCCN(c3nc(OC[C@@]45CCCN4C[C@H](F)C5)nc4c(F)c(-c5ccc(F)c6sc(N)c(C#N)c56)c(Cl)cc34)CC2)n1 (some centres unmarked)",
    "recorded_result": 7
  },
  {
    "molecule": "CCc1c(F)ccc2cc(O)cc(-c3ncc4c(N5CC[C@H]6[C@@H](C5)[C@H]6C(=O)n5ccc(C)n5)nc(OC[C@@]56CCCN5C[C@H](F)C6)nc4c3F)c12 [Example 156]",
    "recorded_result": 38
  }
]

What the record says about CCc1c(F)ccc2cc(O)cc(-c3ncc4c(N5CCCC(C(=O)n6ccc(C)n6)CC5)nc(OC[C@@]56CCCN5C[C@H](F)C6)nc4c3F)c12 (some centres unmarked) : IC50 is 40

IC50 measured on CN(CCN(C)c1nc(OC[C@@]23CCCN2C[C@H](F)C3)nc2c(F)c(-c3ccc(F)c4sc(N)c(C#N)c34)c(Cl)cc12)C(=O)n1cncn1 = 234

Record CCc1c(F)ccc2cc(O)cc(-c3ncc4c(N5C[C@@H]6C[C@@H](C(=O)n7ccc(C)n7)[C@@H]6C5)nc(OC[C@@]56CCCN5C[C@H](F)C6)nc4c3F)c12 , field IC50: 6480

Sure, the documented IC50 for Cc1ccn(C(=O)CC2CN(c3nc(OC[C@@]45CCCN4C[C@H](F)C5)nc4c(F)c(-c5ccc(F)c6sc(N)c(C#N)c56)c(Cl)cc34)C2)n1 is 137

Documented IC50 of CCc1c(F)ccc2cc(O)cc(-c3ncc4c(N5CCN(C(=O)n6ccc(C)n6)C(C(F)(F)F)C5)nc(OC[C@@]56CCCN5C[C@H](F)C6)nc4c3F)c12 (some centres unmarked) : 7190

Measured IC50 of CCc1c(F)ccc2cc(O)cc(-c3ncc4c(N5CCC(C(=O)n6ccc(C(C)(C)C)n6)CC5)nc(OC[C@@]56CCCN5C[C@H](F)C6)nc4c3F)c12 : 312

Per the records, this molecule ( CC(=O)N(C)C(=O)CCCN(C)c1nc(OC[C@@]23CCCN2C[C@H](F)C3)nc2c(F)c(-c3ccc(F)c4sc(N)c(C#N)c34)c(Cl)cc12 (atropisomer, axis not shown; (aS)) [Example 260] ) has IC50 equal to 6

---

Biological target: KRas G12C (Homo sapiens, UniProt P01116, G12C)
Construct: Biotinylated KRas (corresponding to amino acids 1-169, produced at Accelegan Inc.); biotin (biotinylated); purchased Accelegan Inc
Sequence (P01116 1-169 isoform P01116-2 G12C): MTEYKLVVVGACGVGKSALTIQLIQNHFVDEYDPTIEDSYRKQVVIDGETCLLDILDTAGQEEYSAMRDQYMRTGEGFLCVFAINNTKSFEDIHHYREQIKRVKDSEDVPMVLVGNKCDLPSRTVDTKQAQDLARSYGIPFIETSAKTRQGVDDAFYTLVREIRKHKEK
Experiment: KRas binding assay, TR-FRET displacement of Cy5 labelled tracer
Conditions: 60-minute incubation at room temperature, 1% DMSO, pH 7.5
quantity_measured: IC50 (nM)
Provide the reading as a plain figure in nM.

Past entries and their recorded results:
[
  {
    "molecule": "CCc1c(F)ccc2cc(O)cc(-c3ncc4c(N5CC[C@@H](C(=O)n6ccc(C)n6)[C@H](C)C5)nc(OC[C@@]56CCCN5C[C@H](F)C6)nc4c3F)c12 [Example 71]",
    "recorded_result": 1690
  },
  {
    "molecule": "O=C(Oc1ccc(F)cc1)C1CCN(c2nc(OCC34CCCN3CCC4)nc3c(F)c(-c4cccc5cccc(F)c45)ncc23)CC1 [Example 14]",
    "recorded_result": 877
  },
  {
    "molecule": "O=C(Oc1ccc(F)c(F)c1)C1CCN(c2nc(OCC34CCCN3CCC4)nc3c(F)c(-c4cccc5cccc(F)c45)ncc23)CC1 [Example 43]",
    "recorded_result": 424
  },
  {
    "molecule": "CCc1c(F)ccc2cc(O)cc(-c3ncc4c(NC[C@@H]5[C@H](C(=O)n6ccc(C)n6)C5(C)C)nc(OC[C@@]56CCCN5C[C@H](F)C6)nc4c3F)c12 [Example 109]",
    "recorded_result": 134
  }
]

Continue with the next molecule.
Query CN1CC2(CCN(c3nc(OC[C@@]45CCCN4C[C@H](F)C5)nc4c(F)c(-c5ccc(F)c6sc(N)c(C#N)c56)c(Cl)cc34)CC2)C1=O [Example 303] yields IC50 of 3
